All figures here come from ChEMBL document CHEMBL4406804.

# key: entry, value: IC50
assayed-target: Glucocorticoid receptor (Homo sapiens, UniProt P04150)
Sequence (P04150 whole entry): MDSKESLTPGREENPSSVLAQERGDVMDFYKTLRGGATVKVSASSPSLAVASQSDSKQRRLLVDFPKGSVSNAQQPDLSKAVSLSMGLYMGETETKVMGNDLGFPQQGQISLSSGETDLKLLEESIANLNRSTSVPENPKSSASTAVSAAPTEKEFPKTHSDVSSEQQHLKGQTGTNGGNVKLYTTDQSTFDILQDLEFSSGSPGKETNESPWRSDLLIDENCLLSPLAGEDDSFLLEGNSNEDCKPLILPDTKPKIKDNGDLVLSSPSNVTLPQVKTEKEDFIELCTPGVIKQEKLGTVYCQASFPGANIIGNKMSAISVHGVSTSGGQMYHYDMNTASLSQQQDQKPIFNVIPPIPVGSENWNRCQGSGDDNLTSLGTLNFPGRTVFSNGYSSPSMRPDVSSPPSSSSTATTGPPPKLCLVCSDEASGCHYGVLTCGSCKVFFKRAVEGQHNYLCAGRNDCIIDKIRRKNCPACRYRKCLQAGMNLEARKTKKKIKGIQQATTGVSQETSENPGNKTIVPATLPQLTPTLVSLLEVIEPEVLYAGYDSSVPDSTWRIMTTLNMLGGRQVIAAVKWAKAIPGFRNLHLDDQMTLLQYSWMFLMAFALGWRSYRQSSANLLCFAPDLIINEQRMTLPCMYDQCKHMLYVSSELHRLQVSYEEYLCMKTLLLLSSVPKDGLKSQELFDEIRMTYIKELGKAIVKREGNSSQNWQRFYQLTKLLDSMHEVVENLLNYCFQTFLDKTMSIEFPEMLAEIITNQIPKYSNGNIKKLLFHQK
test-description: Antagonist activity at human glucocorticoid receptor expressed in CHO-K1 cells harboring firefly luciferase gene after 20 hrs by One-Glo luciferase reporter gene assay
Format: cell-based

Completed entries (count: 3):
CC#C[C@]1(O)CC[C@H]2[C@@H]3CCC4=CC(=O)CC[C@]4(C)[C@H]3[C@@H](c3ccc(N(C)C)cc3)C[C@@]21C = 29 nM
CC#C[C@]1(O)CC[C@H]2[C@@H]3CCC4=CC(=O)CC[C@]4(C)[C@H]3[C@@H](OCc3ccc(Cl)cc3)C[C@@]21C = 17.6 nM
CC#C[C@]1(O)CC[C@H]2[C@@H]3CCC4=CC(=O)CC[C@]4(C)[C@H]3[C@@H](c3ccc(N(C)C(C)C)cc3)C[C@@]21C = 20.6 nM

Attention now turns to another entry.
[ask] Let me know recorded IC50 for CCC#C[C@]1(O)CC[C@H]2[C@@H]3CCC4=CC(=O)CC[C@]4(C)[C@H]3[C@@H](c3ccc(N(C)C)cc3)C[C@@]21C , thanks.
[reply] 73.7 nM
